These data points were gathered from PubChem BioAssay (EPA / NIEHS).

ASSAY_METHOD_TEXT: ACEA_ER_AUC_viability: ACEA Biosciences xCELLigence Real-Time Cell Analysis on Estrogen Receptor Agonism for Viability (AID 2283782);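 also: continuous compound exposure with impedance area under curve over 80 h; hit means loss of impedance signal meaning reduced cell growth or viability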
Inconclusive results are not listed. Activity calls are given as the source filed them. The calls were made as follows: active = hit-call score of the fitted dose curve at least 0.9, where 1 is the maximum; inconclusive = response in the unintended direction; inactive = score below 0.9.
VALUE_TYPE: AC50

Take a look at these entries with their results.
1) COC(N)=O: inactive
2) O=C(CBr)OCc1ccccc1: inactive
3) COP(=O)(O)OC: inactive
4) COC(=O)C(F)(F)C(F)(F)OC(F)(C(F)(F)F)C(F)(F)OC(F)=C(F)F (centres undefined): inactive
5) CCCCN(CCCC)SN(C)C(=O)Oc1cccc2c1OC(C)(C)C2: 79.2 µM (active)

Ask: Fill in the blank: the reported AC50 of O=P(OCC(Br)CBr)(OCC(Br)CBr)OCC(Br)CBr (centres undefined) is ____.
Result: inactive

Ask: Fill in the blank: the reported AC50 of FC(F)(F)C(F)(C(F)(F)F)C(F)(F)C(F)(F)CC1CO1 (centres undefined) is ____.
Result: inactive

Ask: Fill in the blank: the reported AC50 of `Nc1ccc(Sc2ccc(N)cc2)cc1` is ____.
Result: inactive

Ask: Fill in the blank: the reported AC50 of `CC(C)Nc1ccc(Nc2ccccc2)cc1` is ____.
Result: 18 µM (active)
